Tested on: obese female Zucker rats
assay.remarks: Oral daily treatment of obese female Zucker rats for fourteen days; serum lipids and glycemic control indicators
Type: in vivo
assay.setup: Rattus norvegicus, 168 h; percent change from study prebleed; week 1; 30 mg/kg/day oral; read-out: HDL-C
List of change in vivo at 30 mg/kg/day values.
Report as a plain number; the unit % is understood.

> print(dat)
                                   compound  output.unit  reported.measurement
1  CC(CO)(CCCCOCCCCC(C)(CO)c1ccccc1)c1ccccc1 (centres unmarked)            %                    -4
2               CC(C)(CO)CCCCOCCCCC(C)(C)CO            %                   174
3              CC(C)(CO)CCCOCCOCCCC(C)(C)CO            %                    37

response.value for CC(CO)(CCCCOCCCC(C)(CO)c1ccccc1)c1ccccc1 (centres unmarked) (field: change in vivo at 30 mg/kg/day) = -2

response.value for CC(C)(CO)CCCCCOCCCCC(C)(C)CO (field: change in vivo at 30 mg/kg/day) = 71

Taken from patent US20040192771A1.
